SYSTEM_UNDER_TEST: T1, recombinant human CD47 extracellular domain (ECD), His-tagged, monomer (human, UniProt Q08722 19-141)
T1 construct: C-terminal 6xHis tag; monomeric fraction from Superdex 200; also called human CD47 ECD; CD47-ECD monomer
PROTOCOL_DESCRIPTION: ProteOn SPR; mAb captured, ECD monomer as analyte
MEASURE_NAME: Kd (nM)
Only the number, expressed in nM, is required.

BINDER	QUANTITY_UNIT	Kd
C47B243 (antibody, V domains shown, human IgG2sigma/kappa) VH: EVQLVQSGAEVKKPGESLKISCKGSGYSFTDYWIGWVRQMPGKGLEWMGIIYPGDSDTRYSPSFQGQVTISADKSISTAYLQWSSLKASDTAVYYCARVGRFASHQLDYWGQGTLVTVSS VL: EIVLTQSPATLSLSPGERATLSCRASQSVSNRLAWYQQKPGQAPRLLIYGASNRATGIPARFSGSGSGTDFTLTISSLEPEDFAVYYCQQGRSWPFTFGQGTKVEIK	nM	2.02
C47B216 (antibody, V domains shown, human IgG2sigma/kappa) VH: EVQLVQSGAEVKKPGESLKISCKGSGYSFDDSWIGWVRQMPGKGLEWMGIIYPGDSDTRYSPSFQGQVTISADKSISTAYLQWSSLKASDTAVYYCARVGRFASHQLDYWGQGTLVTVSS VL: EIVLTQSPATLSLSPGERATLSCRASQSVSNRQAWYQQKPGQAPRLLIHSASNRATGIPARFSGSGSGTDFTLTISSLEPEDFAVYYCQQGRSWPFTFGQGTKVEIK	nM	3.35
C47B223 (antibody, V domains shown, human IgG2sigma/kappa) VH: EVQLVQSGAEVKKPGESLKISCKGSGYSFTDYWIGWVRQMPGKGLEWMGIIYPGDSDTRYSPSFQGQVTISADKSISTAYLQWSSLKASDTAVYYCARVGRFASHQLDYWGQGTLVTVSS VL: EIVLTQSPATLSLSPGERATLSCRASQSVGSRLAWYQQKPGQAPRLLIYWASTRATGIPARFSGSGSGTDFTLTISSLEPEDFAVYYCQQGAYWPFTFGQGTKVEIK	nM	1.14
C47B222 (human IgG2sigma) (antibody, V domains shown, human IgG2sigma/kappa; also called IgG2 Fc-silent C47B222) VH: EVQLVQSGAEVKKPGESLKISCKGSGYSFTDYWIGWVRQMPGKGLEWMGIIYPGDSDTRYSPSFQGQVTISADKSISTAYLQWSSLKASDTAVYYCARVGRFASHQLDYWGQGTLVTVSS VL: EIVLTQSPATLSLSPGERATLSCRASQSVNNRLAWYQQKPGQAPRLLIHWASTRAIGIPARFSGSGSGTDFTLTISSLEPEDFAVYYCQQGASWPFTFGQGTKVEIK	nM	1.12

Which Kd is reported for this binder? C47B234 (antibody, V domains shown, human IgG2sigma/kappa) VH: EVQLVQSGAEVKKPGESLKISCKGSGYSFDNYWIGWVRQMPGKGLEWMGIIYPGDSDTRYSPSFQGQVTISADKSISTAYLQWSSLKASDTAVYYCARVGRFASHQLDYWGQGTLVTVSS VL: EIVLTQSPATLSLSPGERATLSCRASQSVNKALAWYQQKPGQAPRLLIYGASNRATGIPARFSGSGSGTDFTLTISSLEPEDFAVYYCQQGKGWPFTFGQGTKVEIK 4.49
